Measured TGI values are reported for all entries that follow.
# System: SF-295 CNS
# assay-text: NCI tumour cell line growth inhibition, 48 h

### Prompt Record request: TGI value, item COc1c(C)c(C/C=C(\C)CCCCO)c(OC)c(OC)c1OC
### Response > 100 µM

### Prompt Record request: TGI value, item CC(C)C1SCc2nc3ccccc3n21 (stereo not given)
### Response > 100 µM

### Prompt Record request: TGI value, item CC1(C)CC(OCCCC[P+](c2ccccc2)(c2ccccc2)c2ccccc2)CC(C)(C)N1O
### Response 1.39 µM

### Prompt Record request: TGI value, item CC1(c2nc3ccccc3[nH]2)CCC(C(N)=O)C(C)(C)O1 (stereo not given)
### Response > 100 µM

### Prompt Record request: TGI value, item Cc1ccc2c(Nc3cccc(Cl)c3F)ncc(NC(=O)c3csc4c(N)ncnc34)c2c1
### Response > 100 µM

###

Measured TGI values are reported for all entries that follow.
# Test system: SF-295 CNS
# assay-text: NCI tumour cell line growth inhibition, 48 h

### Prompt Record request: TGI value, item O=C(O)C[O][Sb][O]CC(=O)O
### Response > 100 µM

### Prompt Record request: TGI value, item Cc1cc(C)n(-c2nc3ccccc3c(=O)n2-c2ccccc2)n1
### Response > 100 µM

### Prompt Record request: TGI value, item CN(C)c1nc(=NCc2cccs2)ss1
### Response > 10 µM

### Prompt Record request: TGI value, item O=C1Nc2cc([N+](=O)[O-])ccc2C(=O)N2CCC[C@@H]12
### Response > 100 µM

### Prompt Record request: TGI value, item O=P(O)(O)C1CCCC(P(=O)(O)O)N1 (stereo unspecified)
### Response > 100 µM

### Prompt Record request: TGI value, item Nc1ccc(Nc2c3ccccc3nc3ccccc23)cc1
### Response > 10 µM

###

# System: IGROV1 ovarian
# assay-text: NCI tumour cell line growth inhibition, 48 h
Measured TGI values are reported for all entries that follow.
Give just the number in µM; leave the unit off.

# compound, quantity-kind, experimental-value
data = [
    ("ICCC(c1ccccc1)(c1ccccc1)c1ccccc1", "TGI", 16.6),
]

Okay, now this compound:
### Prompt Record request: TGI value, item Nc1ncnc2c(C3OC(CO)C(O)C3O)[nH]nc12 (stereo not given)
### Response 8.6

###

# Tested on: SR leukemia
# assay-text: NCI tumour cell line growth inhibition, 48 h
quantity-kind: TGI

Solved entries:
# compound, TGI
measured = [
    ("O=C(O)Cc1cccc2c1OC(c1ccccc1)C(C(=O)c1ccccc1)C2=O (stereo not drawn)", "> 100 µM"),
    ("Nc1nnc(N)n1NC(=O)C(=O)Nc1ccc([N+](=O)[O-])cc1", "> 100 µM"),
]

Okay, now this compound:
### Prompt Record request: TGI value, item Nc1c(C(=O)c2cccc(C#CCN3CCOCC3)c2)cnn1-c1ccc(F)cc1
### Response > 25 µM

###

Measured GI50 values are reported for all entries that follow.
# Tested on: M14 melanoma
# assay-text: NCI tumour cell line growth inhibition, 48 h

Solved entries:
# compound, target-entity, quantity-kind, experimental-value
measured = [
    ("Nc1ccn(C2CC(O)C(CO)O2)c(=O)n1 (stereo not drawn)", "M14 melanoma", "GI50", "> 5000 µM"),
    ("C#C[C@@]1(O)[C@@H](CO)O[C@@H](n2ccc3c(N)ncnc32)[C@@H]1O", "M14 melanoma", "GI50", "1.42 µM"),
]

### Prompt Record request: GI50 value, item O=C(Nc1ccccc1)NS(=O)(=O)c1ccc(N2N=C3c4ccccc4CC3C2c2ccccn2)cc1 (stereo not drawn)
### Response 24.9 µM

###

# Test system: HCT-116 colon
# assay-text: NCI tumour cell line growth inhibition, 48 h
quantity-kind: GI50

# compound, GI50
rows = [
    ("O=C1c2ccccc2-c2n[nH]c3cccc1c23", "6.15 µM"),
]

### Prompt Record request: GI50 value, item c1ccc(-c2nnc(Nc3ccc4c(c3)OCCO4)o2)c(NCc2ccncc2)c1
### Response 0.0282 µM

### Prompt Record request: GI50 value, item O=C1c2cc3c(cc2[C@@H]2[C@H]1c1ccc([N+](=O)[O-])cc1C(=O)N2CCCCl)OCO3
### Response < 0.01 µM

### Prompt Record request: GI50 value, item O=c1oc2ccc(Cl)cc2c(=O)n1-c1cc(C(F)(F)F)cc(C(F)(F)F)c1
### Response 0.277 µM

### Prompt Record request: GI50 value, item N#Cc1cccc(/C=C(/C(=O)c2ccccc2)c2ccccc2)c1
### Response 3.06 µM

### Prompt Record request: GI50 value, item C=CC(=O)N1CCC([C@@H]2CCNc3c(C(N)=O)c(-c4ccc(Oc5ccccc5)cc4)nn32)CC1
### Response 17.1 µM

###

# Tested on: NCI/ADR-RES ovarian
# assay-text: NCI tumour cell line growth inhibition, 48 h
quantity-kind: TGI

# molecule, target-entity, TGI
measured = [
    ("Cc1ccc(C(CC(=O)C(C)(C)CN2CCCCC2)SCCS(=O)(=O)O)cc1 (stereo not drawn)", "NCI/ADR-RES ovarian", "84.9 µM"),
    ("OCCNc1ncnc2c1ncn2C1OC(CO)C(O)C1O (stereo not drawn)", "NCI/ADR-RES ovarian", "> 100 µM"),
]

### Prompt Record request: TGI value, item COc1ccc(C2CC(c3ccc4ccccc4c3O)=NN2C(C)=O)cc1OC (stereo not drawn)
### Response > 100 µM

### Prompt Record request: TGI value, item NC1CC(=O)c2csc(Cl)c21 (stereo not drawn)
### Response > 86.7 µM

### Prompt Record request: TGI value, item COc1cc2c(cc1Oc1ccc(OC)c3c1CC1c4c(cc(OC)c(OC)c4-3)CCN1C)CC1c3c(cc(OC)c(OC)c3-2)CCN1C (stereo not drawn)
### Response 18.3 µM

### Prompt Record request: TGI value, item OCc1ccc2c(c1)CC1(C2)Cc2cc3c(cc2C1)CCC3
### Response > 100 µM

### Prompt Record request: TGI value, item ICCC(c1ccccc1)(c1ccccc1)c1ccccc1
### Response 29.5 µM

### Prompt Record request: TGI value, item CCOC(CI)O[C@@H]1C=C[C@H](OC(C)=O)C1 (stereo partly drawn)
### Response > 100 µM

###

# System: EKVX NSCLC
# assay-text: NCI tumour cell line growth inhibition, 48 h
quantity-kind: TGI

# compound, target-entity, TGI
data = [
    ("CCOC(=O)C(=Cc1cc(OC)ccc1OC)C(=O)OCC", "EKVX NSCLC", "31.3 µM"),
]

Okay, now this compound:
### Prompt So what TGI did CC1(c2nc3ccccc3[nH]2)CCC(C(N)=O)C(C)(C)O1 (configuration not stated) get with EKVX NSCLC?
### Response > 100 µM

###

# Tested on: U251 CNS
# assay-text: NCI tumour cell line growth inhibition, 48 h
quantity-kind: TGI (µM)
Give just the number in µM; leave the unit off.

# compound-string, TGI / µM
rows = [
    ("CN1CCN(Cc2ccc(NC(=O)c3nc4ccc5[nH]ncc5c4c4c3CCC4)cc2C(F)(F)F)CC1", 1.6),
]

Okay, now this compound:
### Prompt Record request: TGI value, item CN(C)CC/C(=N\Nc1ccc(Cl)c(Cl)c1)c1ccccc1
### Response 3.28

###

# System: NCI-H460 lung
# assay-text: NCI tumour cell line growth inhibition, 48 h
quantity-kind: TGI

Solved entries:
# molecule, TGI
measured = [
    ("O=C1/C(=C/c2ccccc2)N=C(c2ccccc2)N1C1Nc2cc3c(cc2S1)NC(N1C(=O)/C(=C/c2ccccc2)N=C1c1ccccc1)S3 (stereo not given)", "> 100 µM"),
    ("COc1cc(O)c2c(c1)C(=O)c1cc(C)cc(O)c1C2=O", "> 100 µM"),
    ("Cc1ccc(S(=O)(=O)SCc2ccccc2CSS(=O)(=O)c2ccc(C)cc2)cc1", "> 100 µM"),
    ("CCOC(CI)O[C@@H]1C=C[C@H](OC(C)=O)C1 (stereo not given in full)", "> 100 µM"),
]

### Prompt Record request: TGI value, item O=C1c2ccccc2C(=O)c2c1ccc(C(=O)O)c2-c1ccc2ccccc2c1
### Response > 100 µM

### Prompt Record request: TGI value, item N#CSCc1c(Cl)cccc1Cl
### Response > 53.4 µM

### Prompt Record request: TGI value, item CCOC(=O)C(=Cc1cc(OC)ccc1OC)C(=O)OCC
### Response > 100 µM

### Prompt Record request: TGI value, item NNc1ccccc1Cl
### Response > 100 µM

### Prompt Record request: TGI value, item CCOC(=O)[C@H]1Nc2ccc(Cl)cc2[C@H]2OCC[C@@H]12
### Response > 100 µM

### Prompt Record request: TGI value, item COC(=O)c1c2c(c(-c3ccccc3)c3c1-c1nc(Cl)ccc1CC3)CCc1ccc(Cl)nc1-2
### Response > 100 µM

### Prompt Record request: TGI value, item O=C(O)c1nc2ccccc2nc1Nc1ccc(F)cc1
### Response > 100 µM

### Prompt Record request: TGI value, item COc1c(Cl)cc(S(=O)O)cc1Cl
### Response > 100 µM

### Prompt Record request: TGI value, item COc1ccc(OC)c(-c2nc3ccccc3c(=O)[nH]2)c1
### Response > 100 µM

### Prompt Record request: TGI value, item COc1ccc2c(c1)CCCN1Cc3cc(OC)c(OC)cc3CC21 (stereo not given)
### Response > 100 µM
